Assay: soluble fraction after stress (log2 fold change); higher = more stays soluble; pooled small domains, quantitative proteomics;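 note: 20 min heating vs room temperature control held 20 min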
Settings: stress: 75 degC
propertyName: soluble fraction (log2)
Numbers only.

Example entries begin here.
sequence | soluble fraction (log2)
HMYEVVPNMRGLTYNQATAALAAAGLKVELSDSIYDEHTQPGTVLDQSPRPNTKVKPNRVVYLTVNAF | -1.1
HMVNTYILNNKEYPIEIIRKNNKNTYLRVKEGKIIVTTNYLTSSFTINKLIKDNTSFINKALLKEN | -0.71
HMNHNPSIARKISREIKRGAPPESLLNLARTVNDSYYRSLSFVSIAYSIKGKKSKELFEEAISNLT | -0.107
HMGQKMLTIELQEKVNKMPDNLASYDLKLSADGMSLIYKYSLKSERTGITALLQELKNAGLVMRDLKTEQ | -0.641
HMQSKSEINELPKSIHMAFSPKNFELFIDNLKINEIDFSNWKGELNTIQERVDGQRQIWIQDPQGYWIEIN | -0.0964

// each listed sequence needs a value for soluble fraction (log2)
1. HMEAFDYLGRRTRDLLERQGWTTVPLVRDAYLAVPGGERLLQVPGFGRKSLREVRRWLWLQIGDPRFE
2. HMLKPQQTQRIYAMAARLGVLESGNKNDMLHTIVYRLTQKESIRSLNENEYKTVVSELAERLKL
3. HMEETLLLRESVRSALAMLAPTLRITLEMYVYRQLSPTEIALRSGVSISMVRRRLGYGLYKLRTQLIDA

# output
[-1.25, -1.12, -0.121]

# input Need soluble fraction (log2) of HMSTTDGIERFLASGAVKGIGRTMAARIVEHFGSRTLTVMESEPERLTEVAGIGRKKAESIAASYAELS , thanks.
# output -0.247
